Data provenance is patent US20110118236A1.

TGT: AMPA receptor (human GluR1 flip/stargazin expressed in CHO-K1 cells) (Homo sapiens, UniProt P42261)
Construct: expressed in transfected cells; host or cells: CHO-K1
Sequence (P42261 19-906 isoform P42261-2 limits assumed): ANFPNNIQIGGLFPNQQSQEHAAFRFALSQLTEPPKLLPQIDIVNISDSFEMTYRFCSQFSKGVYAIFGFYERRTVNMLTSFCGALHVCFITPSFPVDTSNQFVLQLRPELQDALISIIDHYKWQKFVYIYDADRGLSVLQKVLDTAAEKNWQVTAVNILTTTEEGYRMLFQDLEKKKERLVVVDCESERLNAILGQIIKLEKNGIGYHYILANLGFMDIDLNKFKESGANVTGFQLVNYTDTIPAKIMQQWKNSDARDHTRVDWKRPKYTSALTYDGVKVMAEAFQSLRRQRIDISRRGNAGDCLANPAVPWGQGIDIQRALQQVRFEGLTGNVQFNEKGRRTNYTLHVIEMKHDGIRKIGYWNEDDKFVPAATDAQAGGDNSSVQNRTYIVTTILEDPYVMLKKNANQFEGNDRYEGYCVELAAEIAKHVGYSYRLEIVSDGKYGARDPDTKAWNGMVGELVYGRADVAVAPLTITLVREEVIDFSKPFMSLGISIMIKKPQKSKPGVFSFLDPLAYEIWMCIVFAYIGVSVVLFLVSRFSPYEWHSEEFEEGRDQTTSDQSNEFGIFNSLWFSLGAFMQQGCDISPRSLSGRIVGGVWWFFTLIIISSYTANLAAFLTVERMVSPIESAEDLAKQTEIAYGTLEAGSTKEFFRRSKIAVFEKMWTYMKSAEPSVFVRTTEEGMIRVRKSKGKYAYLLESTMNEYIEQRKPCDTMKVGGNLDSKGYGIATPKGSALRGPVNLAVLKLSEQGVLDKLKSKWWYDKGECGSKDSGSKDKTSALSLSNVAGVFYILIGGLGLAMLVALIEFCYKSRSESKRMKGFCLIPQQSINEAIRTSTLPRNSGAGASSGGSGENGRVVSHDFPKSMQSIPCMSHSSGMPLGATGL
Sequence (Q9Y698 whole entry partner): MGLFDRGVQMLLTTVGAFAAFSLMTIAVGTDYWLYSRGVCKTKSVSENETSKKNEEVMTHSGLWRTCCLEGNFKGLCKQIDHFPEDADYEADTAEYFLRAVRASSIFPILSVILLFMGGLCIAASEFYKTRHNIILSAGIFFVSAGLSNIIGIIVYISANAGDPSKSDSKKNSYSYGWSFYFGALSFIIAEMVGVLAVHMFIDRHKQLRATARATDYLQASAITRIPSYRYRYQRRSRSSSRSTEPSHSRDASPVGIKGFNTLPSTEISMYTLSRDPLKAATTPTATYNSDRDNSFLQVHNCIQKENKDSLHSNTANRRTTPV
ASSAY TEXT: Assay of AMPA receptor potentiation by compounds, using calcium influx as an indicator
Assay type: cell-based
TEST CONTEXT: compound 30 μM with glutamic acid final concentration 3 mM, 100% = glutamic acid 3 mM + 300 μM cyclothiazide, 0% = glutamic acid only, change over 3 minutes
ASSAY READOUT: Activity (%) of AMPA receptor potentiation (change in fluorescence, calcium influx)

INSERT INTO assay_data (compound, recorded_result) VALUES
  ('COc1ccc(Cl)cc1NC(=O)Cn1nc(C(F)(F)F)c2c1CCN(C(C)=O)C2 [Example 226]', 74),
  ('CSc1sc(C(=O)NCCn2nc(C(F)(F)F)c3c2CCCC3)c2c1C(O)CCC2 (stereo not drawn) [Example 287]', 68),
  ('COc1ccc(Cl)cc1NC(=O)Cn1nc(C(F)(F)F)c2c1CNCC2 [Example 196]', 80),
  ('NC(=O)c1c(NC(=O)Cn2nc(C(F)(F)F)c3c2CNCC3)sc2c1CCCC2 [Example 185]', 88),
  ('O=C(c1csc(Cn2nc(C(F)(F)F)c3c2CCCC3)n1)N1CCCC1 [Example 145]', 85),
  ('Cc1cc(C(F)(F)F)n2ncc(-c3noc(Cn4nc(C(F)(F)F)c5c4CCCC5)n3)c2n1 [Example 283]', 76);

* * *

TGT: AMPA receptor (human GluR1 flip/stargazin expressed in CHO-K1 cells) (Homo sapiens, UniProt P42261)
Construct: expressed in transfected cells; host or cells: CHO-K1
ASSAY TEXT: Assay of AMPA receptor potentiation by compounds, using calcium influx as an indicator
Format: cell-based
TEST CONTEXT: compound 30 μM with glutamic acid final concentration 3 mM, 100% = glutamic acid 3 mM + 300 μM cyclothiazide, 0% = glutamic acid only, change over 3 minutes
ASSAY READOUT: Activity (%) of AMPA receptor potentiation (change in fluorescence, calcium influx)

INSERT INTO results (compound, recorded_result) VALUES
  ('FC(F)(F)c1nn(Cc2nc(-c3cccs3)no2)c2c1COCC2 [Example 279]', 62),
  ('FC(F)(F)c1nn(Cc2nc(-c3cnccn3)no2)c2c1CCCC2 [Example 277]', 75),
  ('Cc1cc(C)n2ncc(-c3noc(Cn4nc(C(F)(F)F)c5c4CCCC5)n3)c2n1 [Example 276]', 79),
  ('FC(F)(F)c1nn(Cc2nnc(-c3cccs3)o2)c2c1CCCC2 [Example 272]', 86),
  ('NC(=O)c1c(NC(=O)Cn2nc(C(F)(F)F)c3c2CCNC3)sc2c1CCCC2 [Example 190]', 70),
  ('Cc1cc(C(F)(F)F)n2ncc(-c3noc(Cn4nc(C(F)(F)F)c5c4CCC5)n3)c2n1 [Example 278]', 82),
  ('CNC(=O)N1CCc2c(c(C(F)(F)F)nn2CC(=O)Nc2cc(Cl)ccc2OC)C1 [Example 229]', 78),
  ('CSc1sc(C(=O)NCCn2nc(C(F)(F)F)c3c2CCCC3)c2nc(C)n(C)c12 [Example 280]', 86);
